Assay text: qHTS assay for small molecule agonists of the antioxidant response element (ARE) signaling pathway (AID 743202); on activation: on the % scale 0 is the no-effect control and ±100 the full control effect
Measurement conditions: HepG2 ARE-bla reporter, beta-lactamase FRET, 16 h; series mostly up to 73.3 µM
Records with an inconclusive call do not appear. Active and inactive are the calls of the source. The call rests on the fitted dose curve; in most records, active means well fitted activation curve with a large enough effect in the signal ratio in the repeat runs (not every such curve was filed as active); inconclusive means weak or mixed curves, or effect the other way; inactive means no such curve, though single readings can be large or run the other way; the % refers to the signal ratio.
Write down one outcome, taken from active, inactive

Just curious, what result did `Fc1cc(Br)ccc1CBr` get here?
inactive

Next molecule up: `OCCSCSCCO`
inactive

Next molecule up: CC(C)(C)C(=O)C(Oc1ccc(Cl)cc1)n1cncn1 (stereo unspecified)
inactive

Next molecule up: `N#CCCC#N`
inactive

Next molecule up: `[O]=[Cd]`
inactive

Next molecule up: `COC(=O)c1ccccc1S(=O)(=O)NC(=O)N(C)c1nc(C)nc(OC)n1`
inactive

Next molecule up: `COC(C)(C)C`
inactive

Next molecule up: CC(C)CC(N(C)C)C1(c2ccc(Cl)cc2)CCC1 (stereo unspecified)
inactive

Next molecule up: `CCNc1nc(NC(C)C)nc(OC)n1`
inactive

Next molecule up: Fc1ccc(C2(Cn3cncn3)OC2c2ccccc2Cl)cc1 (stereo unspecified)
inactive

Next molecule up: C=CC1CC=CCC1 (stereo unspecified)
inactive

Next molecule up: `c1cc2c(c(N3CCNCC3)c1)OCCO2`
inactive

Next molecule up: `CC(C)CP(=S)(S)CC(C)C`
inactive

Next molecule up: `CNC(=O)Oc1ccccc1C1OCCO1`
inactive

Next molecule up: `CS(=O)(=O)c1cc(C(F)(F)F)ccc1C(=O)c1cnoc1C1CC1`
inactive

Next molecule up: CCC1(c2ccccc2)C(=O)N=C(O)NC1=O (stereo unspecified)
inactive

Next molecule up: `ClCCOCOCCCl`
inactive

Next molecule up: `CCCCc1c(C)nc(NCC)[nH]c1=O`
inactive

Next molecule up: `C[N+](C)=CCl`
inactive

Next molecule up: `N#Cc1ccncc1`
inactive

Next molecule up: `CCC#N`
inactive

Next molecule up: `CCOC(=O)C1(c2ccccc2)CCN(CCc2ccc(N)cc2)CC1`
inactive

Next molecule up: COC(=O)C(C)Oc1ccc(Oc2ccc(Cl)cc2Cl)cc1 (stereo unspecified)
inactive

Next molecule up: `ClC(Br)Br`
inactive

Next molecule up: `C[C@]12CC[C@H]3[C@@H](CC=C4C[C@@H](O)CC[C@@]43C)[C@@H]1CC[C@@H]2O`
inactive

Next molecule up: `COP(=S)(OC)Oc1c(Cl)cc(C)cc1Cl`
inactive

Next molecule up: `CCS(=O)(=O)C(C)(C)S(=O)(=O)CC`
inactive

Next molecule up: `CC(C)[N+](=O)[O-]`
inactive

Next molecule up: `Nc1ccccc1Cl`
inactive

Next molecule up: `CC(N)=S`
inactive

Next molecule up: `CC1=C(C(=O)Nc2ccccc2)S(=O)(=O)CCO1`
active

Next molecule up: `CC1=NNC(=O)N(/N=C/c2cccnc2)C1`
inactive

Next molecule up: `COc1cc(OC)nc(NC(=O)NS(=O)(=O)c2ncccc2C(=O)N(C)C)n1`
inactive

Next molecule up: `CCC(C)(C)c1cc(-n2nc3ccccc3n2)c(O)c(C(C)(C)CC)c1`
inactive

Next molecule up: `CN1CCN(C(=O)O[C@H]2c3nccnc3C(=O)N2c2ccc(Cl)cn2)CC1`
inactive

Next molecule up: CC(C)(C)NCC(O)c1cc(Cl)c(N)c(Cl)c1 (stereo unspecified)
inactive

Next molecule up: `N#CC(Cl)(Cl)Cl`
inactive

Next molecule up: `N#CCBr`
inactive

Next molecule up: `CCCSC(=O)Cl`
inactive

Next molecule up: `COc1cc(OC)nc(NC(=O)NS(=O)(=O)c2ncccc2OCC(F)(F)F)n1`
inactive

Next molecule up: `O=C1c2ccccc2C(=O)c2ccccc21`
inactive

Next molecule up: `ClC(Cl)Br`
inactive

Next molecule up: `O=NN1CCN(N=O)CC1`
inactive

Next molecule up: CCC(Cl)[N+](=O)[O-] (stereo unspecified)
inactive

Next molecule up: `CCC(=O)C(CCN(C)C)(c1ccccc1)c1ccccc1`
inactive

Next molecule up: `CCCCCCBr`
inactive

Next molecule up: `ClCC(Cl)(Cl)Cl`
inactive

Next molecule up: `CCOP(=S)(OCC)Oc1cc(-c2ccccc2)on1`
inactive

Next molecule up: `CCCCP(CCCC)CCCC`
inactive

Next molecule up: `COC(=O)c1c(C(F)F)nc(C(F)(F)F)c(C2=NCCS2)c1CC(C)C`
inactive

Next molecule up: O=CNC(N1CCN(C(NC=O)C(Cl)(Cl)Cl)CC1)C(Cl)(Cl)Cl (stereo unspecified)
inactive

Next molecule up: `Nc1n[nH]c(N)n1`
inactive

Next molecule up: `CCCCOC(=O)c1ccccc1C(=O)O`
inactive

Next molecule up: `O=[N+]([O-])c1cccc2c([N+](=O)[O-])cccc12`
active

Next molecule up: `CN(N=O)C(N)=O`
inactive

Next molecule up: `Cc1cnc[nH]1`
inactive

Next molecule up: `COc1ncc(F)c2nc(S(=O)(=O)Nc3c(F)cccc3F)nn12`
inactive

Next molecule up: OC(Cn1cncn1)(c1ccc(F)cc1)c1ccccc1F (stereo unspecified)
inactive

Next molecule up: `CC(C)CC#N`
inactive

Next molecule up: `Cc1ncsc1CCCl`
inactive

Next molecule up: `CCOC(=O)NC(=S)Nc1ccccc1NC(=S)NC(=O)OCC`
inactive

* * *

Assay text: qHTS assay to identify small molecule agonists of the hypoxia (HIF-1) signaling pathway - cell viability counter screen (AID 1224844); further: nearly all actives have a fitted effect of over 50% in size
Measurement conditions: HRE-bla ME-180 viability, CellTiter-Glo luminescence, 17 h; series mostly up to 76.8 µM
Results filed as inconclusive are left out. Active and inactive are the calls of the source. Calls follow the shape of the full dose curve.
Write down one outcome, taken from 1.0 = active, 0.0 = inactive

Just curious, what result did `CN(C)CCc1ccc(O)cc1` get here?
0.0

Next molecule up: `COc1cccc2c1cc([N+](=O)[O-])c1c(C(=O)O)cc3c(c12)OCO3`
1.0

Next molecule up: CC(C(=O)c1ccccc1)N(C)C (stereo unspecified)
0.0

Next molecule up: `C=CCC1=C(C)[C@@H](OC(=O)[C@@H]2[C@@H](C=C(C)C)C2(C)C)CC1=O`
1.0

Next molecule up: CC1COC2(c3ccccc3Cl)c3cc(Cl)ccc3NC(=O)CN12 (stereo unspecified)
0.0

Next molecule up: C[C@@H]1CN(C2CCC(C#N)(c3ccc(F)cc3)CC2)CC[C@]1(C(=O)O)c1ccccc1 (stereo partly specified)
0.0

Next molecule up: `CCC(=O)C(CCN(C)C)(c1ccccc1)c1ccccc1`
0.0

Next molecule up: `CS(=O)(=O)c1cc(C(F)(F)F)ccc1C(=O)c1cnoc1C1CC1`
0.0

Next molecule up: `Fc1cc(Br)ccc1CBr`
0.0

Next molecule up: CC(C)CC(N(C)C)C1(c2ccc(Cl)cc2)CCC1 (stereo unspecified)
0.0

Next molecule up: `CN1C[C@@H](NS(=O)(=O)N(C)C)C[C@@H]2c3cccc4c3c(cn4C)C[C@H]21`
0.0

* * *

Assay text: qHTS assay for identifying genotoxic compounds that show differential cytotoxicity against isogenic chicken DT40 cell lines with known DNA damage response pathways - wild type cell line (AID 743012); further: nearly all actives have a fitted effect of over 60% in size
Measurement conditions: DT40 wild type chicken cells viability, CellTiter-Glo, 40 h; series mostly up to 68.4 µM
Inconclusive results are not listed. The source made the active and inactive calls. The call rests on the fitted dose curve; in most records, active means well fitted cell-killing curve with a large enough effect in the repeat runs; inconclusive means weak or mixed curves, or effect the other way; inactive means no such curve, though single readings can be large or run the other way.
Write down one outcome, taken from yes for active, no for inactive

Just curious, what result did `CCCCc1ccc(O)cc1` get here?
no

Next compound up: `CCOC(=O)N(C)C(=O)CSP(=S)(OCC)OCC`
yes

Next compound up: `COC(C)(C)C`
no

Next compound up: `COC(=O)COc1ccc(Cl)cc1Cl`
no

Next compound up: `O=C(O)c1ccc2[nH]cc(CCCCN3CC=C(c4ccccc4)CC3)c2c1`
no

Next compound up: CC(C)NCC(O)c1ccc(N)c(C#N)c1 (stereo not given)
no

Next compound up: `CNC(=O)Oc1c(C(C)(C)C)cc(C)cc1C(C)(C)C`
no

Next compound up: `CCOC(=O)CP(=O)(OCC)OCC`
no

Next compound up: `COc1cc2c(cc1OC)[C@@]13CCN4CC5=CCO[C@H]6CC(=O)N2[C@H]1[C@H]6[C@H]5C[C@H]43`
yes

Next compound up: `O=NN1CCN(N=O)CC1`
no

Next compound up: `ClC(Cl)(Cl)C(Cl)(Cl)Cl`
no

Next compound up: `N#CC(Cl)(Cl)Cl`
no

Next compound up: `CNC(=O)Oc1ccccc1C1OCCO1`
no

Next compound up: O=C1OC(=O)C2C1C1(Cl)C(Cl)=C(Cl)C2(Cl)C1(Cl)Cl (stereo not given)
no

Next compound up: `O=[N+]([O-])c1ccc(CBr)cc1`
no

Next compound up: `Cc1cnc[nH]1`
no

Next compound up: `CCOC(=O)NC(=S)Nc1ccccc1NC(=S)NC(=O)OCC`
yes

Next compound up: `CCCCOP(=O)(O)OCCCC`
no

Next compound up: `CCN(CC)CCOC(=O)C(C)(c1ccccc1)c1ccccc1`
yes

Next compound up: `c1cc2c(c(N3CCNCC3)c1)OCCO2`
no

Next compound up: `NC(=O)c1cc([N+](=O)[O-])cc([N+](=O)[O-])c1`
no

Next compound up: `CNC(=O)N(C)c1nc2ccccc2s1`
no

Next compound up: `ClC(Cl)Br`
no

Next compound up: `CCS(=O)(=O)CCSP(=O)(OC)OC`
yes

Next compound up: `CCN(CC)c1nc(C)cc(OP(=S)(OC)OC)n1`
yes

Next compound up: `COC(=O)C1=CCCN(C)C1`
no

Next compound up: COc1ccc2c(c1OC)CN1CCc3cc4c(cc3C1C2)OCO4 (stereo not given)
yes

Next compound up: `CCCCOC(=O)c1ccccc1C(=O)O`
no

Next compound up: `O=C(N[C@H]1CN2CCC1CC2)c1cc2ccoc2cn1`
no

Next compound up: N#CC(CCc1ccc(Cl)cc1)(Cn1cncn1)c1ccccc1 (stereo not given)
yes
